Reported growth values follow for various compounds
system: T-47D breast; test: NCI-60 one-dose screen, 48 h (100 = growth as untreated, 0 = no growth, -100 = all killed); settings: 10 µM unless noted
This is part of a sample that, as a whole, favours compounds with a hit. Of some 83,000 tested, about 20% had one in any assay.
Report the value in % with no unit label.

compound	unit	quantitative.result
OC(CSc1ccccc1)CN1CCN(c2ccc(Cl)cc2)CC1 (stereo not given)	%	95.9
CCN1/C(=C/C(C)=C/c2sc3ccc4ccccc4c3[n+]2CC)Sc2ccc3ccccc3c21	%	-69.8
CCC1C[N+]2=C(c3cc(OC)c(OC)cc3CC2)c2c1cc1n2CCc2cc(OC)c(OC)cc2-1 (stereo not given)	%	6.69

Input line: What does the data say about its growth? Entry: CCC[CH2][Sn]1([CH2]CCC)[O]C2C(CO)OC(n3ccc(N)nc3=O)C2[O]1 (stereo not given)
Output line: -68.8

Input line: For N#Cc1c2ccccc2nc2ccccc12 then?
Output line: 101

====

system: HT29 colon; assay: NCI-60 one-dose screen, 48 h (100 = growth as untreated, 0 = no growth, -100 = all killed); conditions: 10 µM unless noted
Compounds without any hit were thinned out: in the full panel of roughly 83,000, 20% have a hit. Activity calls are given as the source filed them. How the source made its calls: active means growth percent below 10; inactive means the rest.
Reported growth values follow for various compounds

compound	system.name	result
O=[N+]([O-])c1ccc([I+]c2ccccc2)cc1	HT29 colon	-55.8% (active)
Nc1nc(-c2ccccc2)nc(N)c1N=O	HT29 colon	14.5% (inactive)
CC(C)(C)CC(C)(C)c1ccc(OCCOCCSC(=N)N)cc1	HT29 colon	-7.31% (active)
CN1CSC(=S)N(Cc2ccccc2)C1	HT29 colon	24.9% (inactive)

Input line: Request: growth, test system HT29 colon, entry CCOC(=O)C1=NN(c2ccccc2)C(=O)/C1=C\N1C(=O)/C(=C/c2cccc(O)c2)SC1=S
Output line: 111% (inactive)

Input line: For CC(C)c1ccc(C(=O)OC2CCCC2)cc1 then?
Output line: 113% (inactive)

Input line: For O=C1Nc2ccc(Br)cc2C1=O then?
Output line: 100% (inactive)

Input line: For Cc1nc([N+](=O)[O-])c(Sc2nncc(-c3ccccc3)n2)n1C then?
Output line: 84.5% (inactive)

Input line: For Clc1ccc(Cc2nc3ccccc3s2)cc1 then?
Output line: 118% (inactive)

Input line: For CC(/C=N/NC(N)=S)Cc1ccc(C(C)C)cc1 (stereo unspecified) then?
Output line: 47.1% (inactive)

Input line: For CCSc1nc2ccccc2o1 then?
Output line: 113% (inactive)

Input line: For CCCCCCCCCCCC[N+]1(CCCCCCCCCCCC)CCCC(C)C1 (stereo unspecified) then?
Output line: -91.8% (active)

Input line: For CCC(C)C(N)C(=O)NC(CC(N)=O)C(=O)NC(CC(C)C)C(=O)NC(CCCCN)C(=O)NC(C)C(=O)NC(CC(C)C)C(=O)NC(C)C(=O)NC(C)C(=O)NC(CC(C)C)C(=O)NC(C)C(=O)NC(CCCCN)C(=O)NC(CCCCN)C(=O)NC(C(=O)NC(CC(C)C)C(N)=O)C(C)CC (stereo unspecified) then?
Output line: 105% (inactive)

Input line: For C[C@@]1(CO)[C@H](O)CC[C@@]2(C)[C@H]1CC[C@H]1C[C@@H]3C[C@@]12CC[C@@]3(O)COC(=O)CN then?
Output line: 38.7% (inactive)

====

system: PC-3 prostate; test: NCI-60 one-dose screen, 48 h; conditions: 10 µM unless noted
The panel holds about 83,000 compounds, 20% with a hit somewhere; the sample as a whole holds those more often. The source made the active and inactive calls. Rule for the calls: active = growth percent below 10; inactive = the rest.
Respond using exactly one of the listed classes: active, inactive

Examples from the recorded data:
compound	assigned.category
C[n+]1ccccc1C[n+]1ccccc1	inactive
O=C1/C(=C\c2ccc([N+](=O)[O-])cc2)CS(=O)(=O)C/C1=C/c1ccc([N+](=O)[O-])cc1	active
COc1ccc(C(OCC2OC(n3ccc(NC(=O)c4ccccc4)nc3=O)C(O)C2O)(c2ccccc2)c2ccccc2)cc1 (stereo unspecified)	inactive

Input line: Identify the outcome logged in this assay for the compound shown: CN1CSC(=S)N(Cc2ccccc2)C1
Output line: inactive

Input line: For CC(O)C(O)C(O)C(O)C(O)C(=O)NNc1ccccc1 (stereo unspecified) then?
Output line: inactive

Input line: For Cc1ccccc1N=C(N)Nc1ccccc1C (tested in a mixture with another compound) then?
Output line: inactive

Input line: For C/C(=N/NC(N)=S)c1ccc(C)cc1 then?
Output line: inactive

Input line: For CC1=CC(=O)C=CC1(C)C(Cl)(Cl)Cl (stereo unspecified) then?
Output line: inactive

Input line: For CCCCCCCCCCCC[n+]1ccc2ccccc2c1 then?
Output line: active

Input line: For O=C1C=CC(=O)N1C1CCCCCCCCCCC1 then?
Output line: inactive

Input line: For O=C(Cc1ccccc1)C(F)(F)F then?
Output line: inactive

====

system: SK-OV-3 ovarian; assay: NCI-60 one-dose screen, 48 h; conditions: 10 µM unless noted
This is part of a sample that, as a whole, favours compounds with a hit. Of some 83,000 tested, about 20% had one in any assay. Activity calls are given as the source filed them. The calls were made as follows: active = growth percent below 10; inactive = the rest. Where a SMILES comes first, the peptide text is derived from it. [ ]: non-standard residue; d: D form. ξ: configuration not given here. ξD = NC(CC(=O)O)C(=O)O
Respond using exactly one of the listed classes: active, inactive

compound	system.name	assigned.category
NCC(=O)NC(CC(=O)O)C(=O)O (stereo not drawn) (H-Gly-[ξD]-OH)	SK-OV-3 ovarian	inactive
Nc1cccc2cccc([N+](=O)[O-])c12	SK-OV-3 ovarian	inactive
CC(C)=CCCC(C)C1=C(O)C(=O)C(C)=CC1=O (stereo not drawn)	SK-OV-3 ovarian	inactive
O=[N+]([O-])/C(=C/c1ccccc1)c1ccccc1	SK-OV-3 ovarian	inactive
CCOc1ccc(Nc2nc3c(s2)C(=O)c2ccccc2C3=O)cc1	SK-OV-3 ovarian	inactive

Input line: Identify the outcome logged in this assay for the compound shown: COc1ccc2nc3cc([N+](=O)[O-])ccc3c(NNc3ccccc3)c2c1
Output line: inactive

Input line: For NC(CS/C(Cl)=C/Cl)C(=O)O (stereo not drawn) then?
Output line: inactive

Input line: For CCCCC(C=O)(C=C=C(C)C)CC (stereo not drawn) then?
Output line: inactive

Input line: For N#CC(I)CS(=O)(=O)c1ccccc1 (stereo not drawn) then?
Output line: inactive

Input line: For O=C(CCl)N1c2ccccc2Sc2c1ccc1ccccc21 then?
Output line: inactive

====

tested on: BT-549 breast; assay: NCI-60 one-dose screen, 48 h; conditions: 10 µM unless noted
This is part of a sample that, as a whole, favours compounds with a hit. Of some 83,000 tested, about 20% had one in any assay. Calls of active or inactive are those of the source. Rule for the calls: active = growth percent below 10; inactive = the rest.
Respond using exactly one of the listed classes: active, inactive

Examples from the recorded data:
compound	assigned.category
CSc1nc(C)c(C(=O)CCN2CCN(c3ccccn3)CC2)s1	inactive
Oc1c(Cl)cc(Cl)cc1C(c1cc(Cl)cc(Cl)c1O)C(Cl)(Cl)Cl	active
CCCCCCCCCCCC[n+]1ccc(CCCCCCCCC)cc1	active
CCCCCCCCC(=O)OCCCC(CCC(CCC1CCCO1)OC(=O)CCCCCCCC)OC(=O)CCCCCCCC (stereo not drawn)	inactive
C(=N\Nc1ccc2ccccc2n1)/c1ccccn1	inactive

Input line: Identify the outcome logged in this assay for the compound shown: O=Nc1ccc2ccccc2c1O
Output line: inactive

Input line: For Nc1ccc(Oc2ccccc2)c(Cl)c1 then?
Output line: inactive

Input line: For Cn1c(-c2ccccc2)c(/C=C/C2=[N+](C)c3ccccc3C2(C)C)c2ccccc21 then?
Output line: inactive

Input line: For OCCOSCCO then?
Output line: inactive

Input line: For CCN(CC)CCNC(Cc1ccccc1)c1ccc(OCc2ccccc2)cc1 (stereo not drawn) then?
Output line: inactive

Input line: For O=C(Cc1ccccc1)C(F)(F)F then?
Output line: inactive

Input line: For O=C(CBr)c1ccc(OC(=O)c2ccccc2)cc1 then?
Output line: inactive

Input line: For CC(C)(C)c1ccc(O)c(-c2ccccc2)c1 then?
Output line: inactive

====

test system: NCI-H460 lung; assay: NCI-60 one-dose screen, 48 h; conditions: 10 µM unless noted
The panel holds about 83,000 compounds, 20% with a hit somewhere; the sample as a whole holds those more often. Calls of active or inactive are those of the source. How the source made its calls: active means growth percent below 10; inactive means the rest.
Respond using exactly one of the listed classes: active, inactive

compound	system.name	assigned.category
CC/C(=C(/CC)c1ccc(O)cc1)c1ccc(O)cc1	NCI-H460 lung	inactive
Cc1cc(C)c(C#N)c(Sc2nc(C)c([N+](=O)[O-])c(C)c2C#N)n1	NCI-H460 lung	inactive
Nc1nc(-c2ccccc2)nc(N)c1N=O	NCI-H460 lung	inactive

Input line: Identify the outcome logged in this assay for the compound shown: CCN(CC)c1ccc(/C=C\C(=O)c2ccc(NC(C)=O)cc2)cc1
Output line: inactive

Input line: For COc1cc(/C=C2\SC(=S)N(/C=C/c3nc4ccccc4[nH]c3=O)C2=O)cc(OC)c1OC then?
Output line: inactive
